- Test system: A549
- procedureText: Cytotoxicity against human A549 cells assessed as reduction in cell viability measured after 48 hrs by MTT assay
- Type: toxicity, cell-based
resultType: IC50 (µM)
Numbers only, in µM.

q: Name the recorded IC50 of the item "CCCCN(C(=O)Nc1c(-c2ccc(Oc3ccccc3)cc2)csc1C(=O)O)c1ccccc1" in your answer.
a: 49.3
